- measurement notes: chemical genetic growth profiling, strain panel (AID 1159580);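 note: tested at 20 µM; growth read once vehicle control cultures reached saturation at 30 °C; 1 = growth at the plate median or of vehicle wells; lower values mean less growth of the strain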
- study conditions: S. cerevisiae deletion strains, growth OD, locus YHR079C, strain IRE1 (second series), hits give low values
The whole screen tested about 5,500 compounds, of which about 2,000 (36%) were called active. Not shown: some 18% with an inconclusive outcome. Some of the results follow.
quantity measured: normalized growth

Prompt line: What measured normalized growth goes with CO[C@H]1CC(O[C@@H]2/C(C)=C/C[C@@H]3C[C@@H](C[C@]4(CC[C@H](C)[C@@H](C5CCCCC5)O4)O3)OC(=O)[C@@H]3C=C(C)/C(=N\O)[C@H]4OC/C(=C\C=C\[C@@H]2C)[C@]43O)O[C@@H](C)C1O (some centres undefined) ?
Response line: 0.988 (inactive)

Prompt line: Data request, read-out normalized growth, for O=C(NCO)c1cccnc1
Response line: 0.989 (inactive)

Prompt line: Recorded normalized growth for O=C(O)c1cccnc1 , please?
Response line: 1.01 (inactive)

Prompt line: Look at this molecule and give its reported normalized growth. O=P1(N(CCCl)CCCl)NCCCO1 (centres undefined)
Response line: 1.03 (inactive)

Prompt line: Item COc1ccccc1OCC(O)CO (centres undefined) has what recorded normalized growth?
Response line: 0.988 (inactive)

Prompt line: I would be grateful if you could share the reported normalized growth for CNCCCC12CCC(c3ccccc31)c1ccccc12 .
Response line: 0.997 (inactive)

Prompt line: Give the measured normalized growth of C[C@H](CCC(=O)O)[C@H]1CCC2C3C(=O)CC4CC(=O)CC[C@]4(C)C3CC(=O)[C@@]21C (some centres undefined) .
Response line: 0.997 (inactive)

Prompt line: Fill in the blank: the reported normalized growth of Nc1ccc(S(=O)(=O)NC(=O)c2ccccc2)cc1 is ____.
Response line: 1.01 (inactive)

Prompt line: Can you share its normalized growth? I mean this molecule: CN(C)C(=O)Oc1cccc([N+](C)(C)C)c1
Response line: 0.979 (inactive)

Prompt line: Entry under review: C=C1C[C@]23C[C@@]1(O)CC[C@H]2[C@@]12C=C[C@H](O)[C@@](C)(C(=O)O1)[C@H]2[C@@H]3C(=O)O . Reported normalized growth?
Response line: 0.998 (inactive)

Prompt line: I would be grateful if you could share the reported normalized growth for CCCN(CCC)S(=O)(=O)c1ccc(C(=O)O)cc1 .
Response line: 1.01 (inactive)

Prompt line: Recorded normalized growth for CC12CCC3C(CC3(C)C)C(C)(CCC1=O)O2 (centres undefined) , please?
Response line: 1.02 (inactive)

Prompt line: Give its normalized growth value. Item: O=C(O)c1ccc(S(=O)(=O)N(Cl)Cl)cc1
Response line: 1.02 (inactive)

Prompt line: Which normalized growth is reported for this molecule? CCC(C)[C@H]1O[C@]2(C=C[C@@H]1C)C[C@@H]1C[C@@H](C/C=C(\C)[C@@H](OC3C[C@H](OC)C(O[C@H]4C[C@H](OC)[C@@H](O)[C@H](C)O4)[C@H](C)O3)[C@@H](C)/C=C/C=C3\CO[C@@H]4[C@H](O)C(C)=C[C@@H](C(=O)O1)[C@]34O)O2 (some centres undefined)
Response line: 0.87 (active)

Prompt line: Need normalized growth, item CC(=O)O[C@H]1CC[C@@]2(C)C(=CC(=O)C3C4CCC(C(C)CCCC(C)C)[C@@]4(C)CCC32)C1 (some centres undefined)
Response line: 0.991 (inactive)

Prompt line: normalized growth for C=C(C)C1CCC(C)(O)C2CC3OC3(C)C2C1 (centres undefined) ?
Response line: 1.01 (inactive)

Prompt line: Can you look up the measured normalized growth of CC1(C)CC2C1CC[C@]1(CBr)CCC3C(CC(=O)O)C(=O)O[C@@]32C1 (some centres undefined) for me?
Response line: 0.994 (inactive)

Prompt line: // normalized growth lookup, key: CC(C)c1ccc2c(c1)CCC1C(C)(C(N)=O)CCCC21C (centres undefined)
Response line: 0.974 (inactive)

Prompt line: normalized growth lookup needed for CN(C)c1ccc(O)c2c1C[C@H]1C[C@H]3[C@H](N(C)C)C(=O)C(C(N)=O)=C(O)[C@@]3(O)C(=O)C1=C2O , thanks.
Response line: 1 (inactive)
